experimental-target: serotoninergic 5-HT7 receptor (Homo sapiens)
Sequence (P34969 whole entry): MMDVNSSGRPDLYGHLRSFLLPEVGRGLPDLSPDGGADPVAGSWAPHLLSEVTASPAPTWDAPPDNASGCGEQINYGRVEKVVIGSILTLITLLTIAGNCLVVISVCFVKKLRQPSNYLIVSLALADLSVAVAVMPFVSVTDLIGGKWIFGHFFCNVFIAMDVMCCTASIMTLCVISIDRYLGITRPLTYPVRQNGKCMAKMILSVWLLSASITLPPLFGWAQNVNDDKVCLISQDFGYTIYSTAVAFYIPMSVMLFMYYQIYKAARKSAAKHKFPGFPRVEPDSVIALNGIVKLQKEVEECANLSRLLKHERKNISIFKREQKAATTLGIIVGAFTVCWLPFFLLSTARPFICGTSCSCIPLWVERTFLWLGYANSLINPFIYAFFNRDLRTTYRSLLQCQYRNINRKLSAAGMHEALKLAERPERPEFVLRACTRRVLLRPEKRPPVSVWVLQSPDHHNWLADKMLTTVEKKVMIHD
experiment-description: Binding assay 5-HT7 (h), [3H]LSD, CHO cells
Parameters: expressed in transfected cells; host or cells: CHO cells
study-conditions: read-out: 5-HT7
readout-type: inhibition at 1 µM (%)
Just the number please, in %, no unit attached.

I'd like to know its inhibition at 1 µM. The compound in question is `CC(C)(C)c1ccc(S(=O)(=O)NCCCCN2CCC(c3noc4cc(F)ccc34)CC2)cc1`
98

Can you handle `O=S(=O)(NCCCCN1CCN(c2nsc3ccccc23)CC1)c1ccc2cc(Cl)ccc2c1` next?
100

Again, but for `O=S(=O)(NCCCN1CCN(c2nsc3ccccc23)CC1)c1csc2ccccc12`
98

Request: `O=S(=O)(NCCN1CCC(c2noc3cc(F)ccc23)CC1)c1cccc2ccccc12`
96

// next record `O=S(=O)(NCCCCN1CCC(c2noc3cc(F)ccc23)CC1)c1ccc2c(c1)OCCO2`
100

Next entry: `O=S(=O)(NCCCCN1CCN(c2cccc3c2OCCO3)CC1)c1cc2ccccc2s1`
96

Moving on to `Cc1[nH]c2ccc(Cl)cc2c1C1=CCN(CCCCNS(=O)(=O)c2cccc(Cl)c2)CC1`
33

And for `O=S(=O)(NCCCN1CCC(c2noc3cc(F)ccc23)CC1)c1ccc(Cl)s1` ?
78

`O=S(=O)(NCCCCN1CCN(c2noc3ccccc23)CC1)c1cnc2ccccn12` , same question.
93

Same thing, different compound: `O=S(=O)(NCCCN1CCN(c2nsc3ccccc23)CC1)c1ccc(F)c(F)c1`
100

How about `Cc1cccc(S(=O)(=O)NCCCCN2CCC(c3noc4cc(F)ccc34)CC2)c1` ?
100

And for `O=S(=O)(NCCCN1CCC(c2noc3cc(F)ccc23)CC1)c1ccc(-c2ccccc2)cc1` ?
95

Follow-up item: `O=C1Cc2cc(S(=O)(=O)NCCCCN3CCC(c4noc5cc(F)ccc45)CC3)ccc2N1`
78

Lookup `O=S(=O)(NCCCCN1CCN(c2nsc3ccccc23)CC1)c1cccc(F)c1`
99

Next compound: `O=S(=O)(NCCCN1CCN(c2cccc3c2OCCO3)CC1)c1ccc2cc(Cl)ccc2c1`
102

Repeat with `O=S(=O)(NCCCN1CCN(c2nsc3ccccc23)CC1)c1ccc(F)c(Cl)c1`
99

Then this compound: `O=S(=O)(NCCCCN1CCN(c2cccc3c2OCCO3)CC1)c1ccc2ccccc2c1`
82

====

experimental-target: dopaminergic D3 receptor (Homo sapiens, UniProt P35462)
Sequence (P35462 whole entry): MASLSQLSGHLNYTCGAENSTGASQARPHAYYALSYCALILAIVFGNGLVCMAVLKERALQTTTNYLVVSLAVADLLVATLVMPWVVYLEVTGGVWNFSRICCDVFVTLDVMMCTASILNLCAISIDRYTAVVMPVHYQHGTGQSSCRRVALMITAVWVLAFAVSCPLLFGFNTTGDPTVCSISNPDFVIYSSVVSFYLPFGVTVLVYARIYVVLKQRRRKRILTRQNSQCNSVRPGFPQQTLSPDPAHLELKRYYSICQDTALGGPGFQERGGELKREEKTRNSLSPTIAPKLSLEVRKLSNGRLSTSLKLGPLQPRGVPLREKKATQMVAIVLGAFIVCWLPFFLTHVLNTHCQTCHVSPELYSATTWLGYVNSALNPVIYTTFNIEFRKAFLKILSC
experiment-description: Cellular functional assay, dopaminergic D3 receptor (agonism/antagonism)
Type: cell-based
study-conditions: CHO; read-out: D3-antag. [%]
Experimental: The compounds were tested at the concentration of 1×10^−6M. In the Tables ag refers to agonism, and antag to antagonism).
readout-type: inhibition at 1 µM (%)
Express the result in % but write the number alone.

Endpoint output: inhibition at 1 µM of `O=S(=O)(NCCCCN1CCN(c2cccc3[nH]ccc23)CC1)c1ccc2cc(Cl)ccc2c1` . Value?
35

Please give the result for `O=S(=O)(NCCCCN1CCC(c2noc3cc(F)ccc23)CC1)c1csc2ccccc12` too.
81

Again, but for `O=S(=O)(NCCCCN1CCN(c2cccc3[nH]ccc23)CC1)c1ccc(F)cc1`
79

====

experimental-target: dopaminergic D3 receptor (Homo sapiens, UniProt P35462)
experiment-description: Binding assay D3 (h), [3H]methyl-spiperone, CHO cells
Set-up: expressed in transfected cells; host or cells: CHO cells
study-conditions: read-out: D3 [%]
Record form. Attribute: inhibition at 1 µM. Fill in for each entry.
Report the figure in % without appending any unit label.

Quick check: inhibition at 1 µM of `O=S(=O)(NCCCCN1CCN(c2nsc3ccccc23)CC1)c1ccc(F)cc1` ?
76

`O=S(=O)(NCCCN1CCN(c2cccc3c2OCCO3)CC1)c1ccc2c(c1)CCO2` , same question.
67

Then what about the compound `O=S(=O)(NCCCCN1CCC(c2noc3cc(F)ccc23)CC1)c1cc2ccccc2o1` ?
95

Try this compound next: `O=S(=O)(NCCCCN1CCC(c2noc3cc(F)ccc23)CC1)c1cc2ccc(Cl)cc2s1`
100

// same read-out, input: `Cc1[nH]c2ccc(Cl)cc2c1C1=CCN(CCNS(=O)(=O)c2cccc(F)c2)CC1`
39

Please answer likewise for `O=S(=O)(NCCCCN1CCN(c2nsc3ccccc23)CC1)c1cccc(F)c1`
91

`COc1cccc(S(=O)(=O)NCCCN2CCC(c3noc4cc(F)ccc34)CC2)c1` ?
96

Next up: `O=S(=O)(NCCCCN1CCN(c2nsc3ccccc23)CC1)c1cc2ccc(Cl)cc2s1`
97

====

Kindly state inhibition at 1 µM for each of the entries shown.
experimental-target: adrenergic α1A receptor (Homo sapiens)
Sequence (P35348 1-466): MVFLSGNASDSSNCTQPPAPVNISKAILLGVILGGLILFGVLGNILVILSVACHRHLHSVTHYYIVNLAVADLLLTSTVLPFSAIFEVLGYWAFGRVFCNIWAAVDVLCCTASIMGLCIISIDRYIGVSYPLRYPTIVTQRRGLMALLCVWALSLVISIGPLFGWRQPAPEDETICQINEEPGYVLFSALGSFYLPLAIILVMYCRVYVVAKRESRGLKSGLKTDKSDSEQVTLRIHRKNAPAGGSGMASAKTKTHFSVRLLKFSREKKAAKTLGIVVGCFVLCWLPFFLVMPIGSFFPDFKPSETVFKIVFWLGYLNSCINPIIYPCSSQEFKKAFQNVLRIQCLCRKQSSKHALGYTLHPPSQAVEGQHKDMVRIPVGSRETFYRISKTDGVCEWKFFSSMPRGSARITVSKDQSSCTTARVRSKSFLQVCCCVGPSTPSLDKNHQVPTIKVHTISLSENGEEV
experiment-description: Cellular functional assay, adrenergic α1A receptor (agonism/antagonism)
Type: cell-based
study-conditions: read-out: α1A -antag. [%]
Express your answer in %, writing the number without its unit.

Given the entry `O=S(=O)(NCCCCN1CCN(c2noc3ccccc23)CC1)c1cccc2ccccc12` , what inhibition at 1 µM was observed with adrenergic α1A receptor (Homo sapiens)?
100

What do you have for `O=S(=O)(NCCCCN1CCC(c2noc3cc(F)ccc23)CC1)c1cc2ccccc2s1` ?
100

Moving on to the next molecule: `O=S(=O)(NCCCCN1CCN(c2cccc3[nH]ccc23)CC1)c1cc2ccccc2s1`
100

Queued: `O=S(=O)(NCCCCN1CCC(c2noc3cc(F)ccc23)CC1)c1csc2ccccc12`
100

Now consider `Cc1c(S(=O)(=O)NCCCCN2CCC(c3noc4cc(F)ccc34)CC2)sc2ccc(F)cc12` and answer again.
100

Do the same for `O=S(=O)(NCCCCN1CCN(c2cccc3[nH]ccc23)CC1)c1cnc2ccccn12` please
97

Another molecule to check: `O=c1[nH]c2ccc(S(=O)(=O)NCCCN3CCN(c4nsc5ccccc45)CC3)cc2o1`
100

Another: `O=c1[nH]c2cccc(N3CCN(CCCNS(=O)(=O)c4cccc5ccccc45)CC3)c2[nH]1`
70

Please give the result for `O=c1[nH]c2cccc(N3CCN(CCCNS(=O)(=O)c4ccc5ccccc5c4)CC3)c2[nH]1` too.
76

`O=S(=O)(NCCCCN1CCN(c2noc3ccccc23)CC1)c1c[nH]c2ncccc12` , same question.
100

And what about the molecule `O=c1[nH]c2ccc(S(=O)(=O)NCCCCN3CCN(c4noc5ccccc45)CC3)cc2o1` ?
100

Would you mind doing `O=S(=O)(NCCCN1CCC(c2noc3cc(F)ccc23)CC1)c1ccc(F)c(Cl)c1` as well?
100

Next record, please: `O=S(=O)(NCCCCN1CCN(c2nsc3ccccc23)CC1)c1ccc2cc(Cl)ccc2c1`
100

Input `Cc1c(S(=O)(=O)NCCCCN2CCN(c3noc4ccccc34)CC2)sc2ccc(F)cc12`
100

Okay, and `O=S(=O)(NCCCCN1CCN(c2nsc3ccccc23)CC1)c1cc2ccc(Cl)cc2s1` ?
95

Note, next up: `O=S(=O)(NCCCCN1CCN(c2noc3ccccc23)CC1)c1cc2ccc(Cl)cc2s1`
97

====

Assignment: determine reported σ [%] for the given molecules.
Tested on: sigma σ receptor
experiment-description: Binding assay σ (non-selective), [3H]DTG, rat cerebral cortex
study-conditions: percent inhibition of control specific binding; compounds tested at 1×10^−6 M
# unit: % | format: bare number

Reported σ [%], molecule `O=c1[nH]c2cccc(N3CCN(CCCNS(=O)(=O)c4cccc(F)c4)CC3)c2[nH]1` : ____
−25

Next: `O=S(=O)(NCCCN1CCC(c2noc3cc(F)ccc23)CC1)c1ccc2ccccc2c1`
82

Try this molecule too: `O=S(=O)(NCCCCN1CCC(c2noc3cc(F)ccc23)CC1)c1ccc2c(c1)OCO2`
80

Request: `O=S(=O)(NCCCN1CCC(c2noc3cc(F)ccc23)CC1)c1ccc2cn[nH]c2c1`
76

Quick one: `Cc1c(S(=O)(=O)NCCCCN2CCN(c3noc4ccccc34)CC2)sc2ccc(F)cc12`
59

Moving on to the next molecule: `O=S(=O)(NCCCCN1CCC(c2noc3cc(F)ccc23)CC1)c1ccc2c(c1)OCCO2`
74

Likewise for `Cc1[nH]c2ccc(Cl)cc2c1C1=CCN(CCCCNS(=O)(=O)c2ccc(Cl)cc2)CC1` ?
34

What about this molecule? `O=S(=O)(NCCCCN1CCC(c2noc3cc(F)ccc23)CC1)c1cc2ccc(Cl)cc2s1`
49
